Each recorded value in this set is attributed to patent US9796753B2.

Test system: CNS SF-539
assay_comment: COMPARE screening (NCI human cancer cell line screen), cytotoxicity GI50
Format: cell-based
Protocol: Selected compounds were tested for antiproliferative activity in the National Cancer Institute's developmental therapeutics assay 60 cell line screen (NCI60). The cells were incubated with the tested compounds at 100, 10, 1, 0.1, and 0.01 μM concentrations for 48 h before treatment with sulforhodamine B dye. Optical densities were recorded, and their ratios relative to that of the control were plotted as percentage growth against the log 10 of the tested compound concentrations.
GI50: recorded values
observable: GI50

INSERT INTO measurements (compound, test_result) VALUES
  ('COc1cc2c(=O)n(CCCN3CCOCC3)c3c(c2cc1O)C(=O)c1cc2c(cc1-3)OCO2 [Compound 18]', '300 nM'),
  ('CC(C)(C)OC(=O)NCCCCCCCCCCn1c2c(c3ccccc3c1=O)C(=O)c1ccccc1-2 [Compound 5ai]', '42700 nM'),
  ('COc1ccc2c(c1)C(=O)c1c-2n(CCCn2ccnc2)c(=O)c2cc([N+](=O)[O-])ccc12 [Compound 5br]', '< 10 nM'),
  ('COc1cc2c3c(n(CCCN4CCN(CCO)CC4)c(=O)c2cc1OC)-c1cc2c(cc1C3=O)OCO2 [Compound 5w]', '1440 nM');

* * *

# key: entry, value: GI50
System: breast MDA-MB-435
assay_comment: COMPARE screening (NCI human cancer cell line screen), cytotoxicity GI50
Format: cell-based
test_context: breast MDA-MB-435; concentration corresponding to 50% growth inhibition; read-out: cytotoxicity (GI50 in μM) breast MDA-MB-435
observable: GI50 (µM)

INSERT INTO assay_data (molecule, test_result) VALUES
  ('CC(C)(C)OC(=O)N(CCCCN(CCCn1c2c(c3ccccc3c1=O)C(=O)c1ccccc1-2)C(=O)OC(C)(C)C)CCCn1c2c(c3ccccc3c1=O)C(=O)c1ccccc1-2 [Compound 13d]', 69.2),
  ('O=C(O)C(F)(F)F.O=C(O)C(F)(F)F.O=C1c2ccccc2-c2c1c1ccccc1c(=O)n2CCNCCCNCCn1c2c(c3ccccc3c1=O)C(=O)c1ccccc1-2 [Compound 14d]', 0.024),
  ('O=C(O)C(F)(F)F.O=C(O)C(F)(F)F.O=C1c2ccccc2-c2c1c1ccccc1c(=O)n2CCCNCCCNCCCn1c2c(c3ccccc3c1=O)C(=O)c1ccccc1-2 [Compound 14g]', 0.107);

* * *

Quick reference for GI50 among some compounds
System: melanoma UACC-62
assay_comment: COMPARE screening (NCI human cancer cell line screen), cytotoxicity GI50
Format: cell-based
observable: GI50 (µM)

INSERT INTO results (compound, target_entity, unit_of_measurement, cmp, test_result) VALUES
  ('COc1ccc2c(c1)C(=O)c1c-2n(CCCn2ccnc2)c(=O)c2ccccc12', 'melanoma UACC-62', 'µM', '=', 0.071),
  ('COc1cc2c3c(n(CCCn4ccnc4)c(=O)c2cc1OC)-c1cc2c(cc1C3=O)OCO2.Cl [Compound 5l, Hydrochloride]', 'melanoma UACC-62', 'µM', '<', 0.01),
  ('CC(C)(C)OC(=O)NCCCCCCCn1c2c(c3ccccc3c1=O)C(=O)c1ccccc1-2', 'melanoma UACC-62', 'µM', '=', 20),
  ('COc1cc2c3c(n(CCCN4CCNCC4)c(=O)c2cc1OC)-c1cc2c(cc1C3=O)OCO2.Cl.Cl [Compound 5p, Dihydrochloride]', 'melanoma UACC-62', 'µM', '=', 1.2),
  ('COc1ccc2c(c1)C(=O)c1c-2n(CCCI)c(=O)c2cc([N+](=O)[O-])ccc12', 'melanoma UACC-62', 'µM', '=', 0.148),
  ('O=C1c2ccccc2-c2c1c1ccccc1c(=O)n2CCNCCO [Compound S-2, oracin, reference compound]', 'melanoma UACC-62', 'µM', '=', 1.42),
  ('O=C1c2ccccc2-c2c1c1ccccc1c(=O)n2CCNCCn1c2c(c3ccccc3c1=O)C(=O)c1ccccc1-2 [Compound 12a]', 'melanoma UACC-62', 'µM', '>', 25.1),
  ('Cl.O=C1c2ccccc2-c2c1c1ccc([N+](=O)[O-])cc1c(=O)n2CCCNCCO', 'melanoma UACC-62', 'µM', '=', 0.2),
  ('COc1cc2c3c(n(CCCN4CCN(C)CC4)c(=O)c2cc1OC)-c1cc2c(cc1C3=O)OCO2', 'melanoma UACC-62', 'µM', '=', 15.1),
  ('Cl.NCCn1c2c(c3ccccc3c1=O)C(=O)c1ccccc1-2', 'melanoma UACC-62', 'µM', '=', 0.92),
  ('O=C(O)C(F)(F)F.O=C(O)C(F)(F)F.O=C1c2ccccc2-c2c1c1ccccc1c(=O)n2CCNCCNCCn1c2c(c3ccccc3c1=O)C(=O)c1ccccc1-2 [Compound 14c]', 'melanoma UACC-62', 'µM', '=', 0.331),
  ('O=C(O)C(F)(F)F.O=C1c2ccccc2-c2c1c1ccccc1c(=O)n2CCCNCCn1c2c(c3ccccc3c1=O)C(=O)c1ccccc1-2 [Compound 14a]', 'melanoma UACC-62', 'µM', '=', 5.01),
  ('COc1cc2c3c(n(CCCn4cncn4)c(=O)c2cc1OC)-c1cc2c(cc1C3=O)OCO2.Cl [Compound 5n, Hydrochloride]', 'melanoma UACC-62', 'µM', '<', 0.01),
  ('O=C1c2ccccc2-c2c1c1ccc([N+](=O)[O-])cc1c(=O)n2CCCn1ccnc1', 'melanoma UACC-62', 'µM', '=', 0.012),
  ('[N-]=[N+]=NCCCn1c2c(c3ccccc3c1=O)C(=O)c1ccccc1-2', 'melanoma UACC-62', 'µM', '=', 19.5),
  ('COc1cc2c3c(n(CCCNc4nccs4)c(=O)c2cc1OC)-c1cc2c(cc1C3=O)OCO2.Cl.Cl [Compound 5o, Dihydrochloride]', 'melanoma UACC-62', 'µM', '=', 0.014),
  ('COc1ccc2c(c1)C(=O)c1c-2n(CCCN=[N+]=[N-])c(=O)c2ccccc12', 'melanoma UACC-62', 'µM', '=', 75.9),
  ('COc1cc2c3c(n(CCCN4CCCC(O)C4)c(=O)c2cc1OC)-c1cc2c(cc1C3=O)OCO2.Cl (stereo not shown) [Compound 5s, Hydrochloride]', 'melanoma UACC-62', 'µM', '=', 5.01),
  ('COc1cc2c3c(n(CCCN(CCCN(CCCn4c5c(c6ccccc6c4=O)C(=O)c4ccccc4-5)C(=O)OC(C)(C)C)C(=O)OC(C)(C)C)c(=O)c2cc1OC)-c1cc2c(cc1C3=O)OCO2 [Compound 16a]', 'melanoma UACC-62', 'µM', '>', 100),
  ('O=C1c2ccccc2-c2c1c1ccccc1c(=O)n2CCCNCCCn1c2c(c3ccccc3c1=O)C(=O)c1ccccc1-2 [Compound 12c]', 'melanoma UACC-62', 'µM', '=', 6.61),
  ('O=C(O)C(F)(F)F.O=C(O)C(F)(F)F.O=C1c2ccccc2-c2c1c1ccccc1c(=O)n2CCCNCCNCCCn1c2c(c3ccccc3c1=O)C(=O)c1ccccc1-2 [Compound 14e]', 'melanoma UACC-62', 'µM', '=', 0.052),
  ('Cl.NCCCCn1c2c(c3ccccc3c1=O)C(=O)c1ccccc1-2', 'melanoma UACC-62', 'µM', '=', 0.05),
  ('Cl.O=C1c2ccccc2-c2c1c1ccccc1c(=O)n2CCCCNCCCn1c2c(c3ccccc3c1=O)C(=O)c1ccccc1-2 [Compound 14b, Hydrochloride]', 'melanoma UACC-62', 'µM', '=', 0.513),
  ('COc1cc2c3c(n(CCCn4cccn4)c(=O)c2cc1OC)-c1cc2c(cc1C3=O)OCO2', 'melanoma UACC-62', 'µM', '=', 0.269),
  ('NCCCn1c2c(c3ccccc3c1=O)C(=O)c1ccccc1-2 [Compound S-3, reference compound]', 'melanoma UACC-62', 'µM', '=', 0.26),
  ('O=C(O)C(F)(F)F.O=C(O)C(F)(F)F.O=C(O)C(F)(F)F.O=C1c2ccccc2-c2c1c1ccccc1c(=O)n2CCNCCNCCNCCn1c2c(c3ccccc3c1=O)C(=O)c1ccccc1-2 [Compound 14i]', 'melanoma UACC-62', 'µM', '=', 0.269),
  ('Cl.O=C1c2ccccc2-c2c1c1ccccc1c(=O)n2CCCNCCO', 'melanoma UACC-62', 'µM', '=', 0.178),
  ('COc1ccc2c(c1)C(=O)c1c-2n(CCCn2ccnc2)c(=O)c2cc([N+](=O)[O-])ccc12', 'melanoma UACC-62', 'µM', '<', 0.01);
